These data points were gathered from patent US20220332795A1.

MEASURED_TARGET: T1, recombinant biotinylated human CD71 extracellular domain (human, UniProt P02786 89-760, biotinylated)
T1 construct: extracellular domain; also called hCD71; huCD71 ECD
T1 sequence (P02786 other isoform, or with tags, fused parts or gaps): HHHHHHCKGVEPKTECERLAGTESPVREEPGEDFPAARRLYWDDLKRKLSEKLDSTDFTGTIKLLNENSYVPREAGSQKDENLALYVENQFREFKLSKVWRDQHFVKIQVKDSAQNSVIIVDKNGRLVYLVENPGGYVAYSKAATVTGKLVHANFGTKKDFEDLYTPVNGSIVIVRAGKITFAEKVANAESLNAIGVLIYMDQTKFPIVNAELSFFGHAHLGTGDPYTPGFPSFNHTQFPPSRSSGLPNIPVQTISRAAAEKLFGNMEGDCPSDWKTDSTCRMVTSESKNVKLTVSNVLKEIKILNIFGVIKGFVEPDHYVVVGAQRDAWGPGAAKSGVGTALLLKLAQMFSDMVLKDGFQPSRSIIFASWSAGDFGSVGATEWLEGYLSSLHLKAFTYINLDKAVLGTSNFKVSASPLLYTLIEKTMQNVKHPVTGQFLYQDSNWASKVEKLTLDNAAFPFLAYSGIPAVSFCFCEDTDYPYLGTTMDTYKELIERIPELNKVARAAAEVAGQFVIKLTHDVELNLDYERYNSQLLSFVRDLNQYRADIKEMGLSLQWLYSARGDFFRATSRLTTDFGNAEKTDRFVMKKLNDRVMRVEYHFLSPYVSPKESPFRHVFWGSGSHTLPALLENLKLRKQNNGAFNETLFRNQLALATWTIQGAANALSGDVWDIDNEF
METHOD_SUMMARY: solution ELISA
METRIC_NAME: hCD71, RLU (RLU)

I: SEQ ID NO 106 (designed binder, FN3 domain) MLPAPKNLVVSRVTEDSARLSWTAPDAAFDSFYIAYAEPRPDGEAILLDVPGSERSYDLTGLKPGTEYSVLIHGVKGGLLSSPLYASFTT
II: SEQ ID NO 143 (designed binder, FN3 domain) MLPAPKNLVVSRVTEDSARLSWTAPDAAFDSFYIAYAEPRPDGEAILLFVPGSERSYDLTGLKPGTEYSVLIHGVKGGLLSSPLVAHFTT
[in] Looking at I and II , which one comes out lower in hCD71, RLU terms? Identify your pick by its label.
[out] II

P: SEQ ID NO 169 (designed binder, FN3 domain) MLPAPKNLVVSRVTEDSARLSWTAPDAAFDSFYIAYAEPRPDGEAILLLVPGSERSYDLTGLKPGTEYSVLIHGVKGGLLSSPLSAVFTT
Q: SEQ ID NO 173 (designed binder, FN3 domain) MLPAPKNLVVSRVTEDSARLSWTAPDAAFDSFHIVYHEPRPSGEAIHLQVPGSERSYDLTGLKPGTEYNVTIQGVKGGFPSYPLSAFFTT
R: SEQ ID NO 178 (designed binder, FN3 domain) MLPAPKNLVVSRVTEDSARLSWTAPDAAFDSFYIAYAEPRPDGEAIQLQVPGSERSYDLTGLKPGTEYSVLIHGVKGGLLSSPLSAIVTT
S: SEQ ID NO 116 (designed binder, FN3 domain) MLPAPKNLVVSRVTEDSARLSWTAPDAAFDSFYIAYAEPRPDGEAIQLVVPGSERSYDLTGLKPGTEYSVLIHGVKGGLLSSPLSAIFTT
[in] Would you mind ranking these binders by ascending hCD71, RLU? Write the labels in rank order as requested.
[out] S, R, Q, P
(S: 428000 RLU, R: 865000 RLU, Q: 1.49e+06 RLU, P: 4.14e+06 RLU)

A: SEQ ID NO 197 (designed binder, FN3 domain) MLPAPKNLVVSRVTEDSARLSWTAPDAAFDSFYIAYAEPRPDGEAIKLDVPGSERSYDLTGLKPGTEYSVLIHGVKGGLLSSPLVAFFTT
B: SEQ ID NO 184 (designed binder, FN3 domain) MLPAPKNLVVSRVTEDSARLSWTAPDAAFDSFFIGYLEPQPPGEAIDLAVPGSERSYDLTGLKPGTEYSVLIHGVKGGLLSSPLSFTT
[in] Compare reported hCD71, RLU values for A and B . Which is lower? State your choice using its label.
[out] A
(A: 1.4e+06 RLU, B: 4.04e+06 RLU)
